B1: library; numbered along this chain (parent)
chain: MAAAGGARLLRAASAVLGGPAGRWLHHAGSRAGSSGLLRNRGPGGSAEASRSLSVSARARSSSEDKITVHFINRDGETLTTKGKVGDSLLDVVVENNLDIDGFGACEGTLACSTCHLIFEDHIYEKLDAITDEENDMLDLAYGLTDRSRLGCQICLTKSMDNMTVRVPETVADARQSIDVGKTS

# Variants of: B1
# protocol-description: scaled log2 fold change in cell abundance, elesclomol vs control (0 = silent mean, 1 = nonsense mean) (scaled log2 ratio); higher = higher viability under elesclomol (loss of FDX1 cuproptosis function);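 also: variant abundance is its share of total variant reads in each endpoint sample, from next-generation sequencing of the integrated ORF PCR-amplified out of genomic DNA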
# condition-label: with HEK293T FDX1 KO; elesclomol 40 nM; glucose 10 mM; 11 days
scaled log2 fold change by entry:
measure: scaled log2 fold change

| mutant-designation | reported-measurement |
| --- | --- |
| V16M | 0.406 |
| I67P | -0.205 |
| H116A | 0.404 |
